# Tested on: MCF7
# assay explanation: MTT cytotoxicity assay (IC50)
# Type: cell-based, human
# measurement context: Homo sapiens; MCF7, after 72 h incubation, MTT, vs untreated control cells; read-out: IC50
pIC50: −log10 of the molar value. Counter-ions that a name gives are not always drawn.
attribute measured: pIC50

INSERT INTO results (molecule, observed_measurement) VALUES
  ('O=C(O)Cc1ccccc1Nc1c(Cl)cccc1Cl [NaDf, diclofenac sodium salt]', 3.01);

====

# Test system: HaCat
# assay explanation: MTT cytotoxicity assay (IC50)
# Type: cell-based, human
# measurement context: HaCat normal cells, after 72 h incubation, MTT, vs untreated control cells; read-out: IC50
# Experimental: MCF7 cell line (human breast adenocarcinoma, morphology: epithelial-like, ATCC: HTB-22), A549 cell […] Cytotoxicity was assessed by MTT assay performed according the protocols described elsewhere.S1 In brief, 1×10^4 cells per well, seeded in 96-well flat bottom microtiter plate, were incubated with the tested compounds (in the appropriate media) at various range of concentrations for 24 h. […] Determined values of IC50 are given as mean + S.D. (Standard Deviation). […]
pIC50: −log10 of the molar value.
attribute measured: pIC50

INSERT INTO measurements (compound, measurement_target, observed_measurement) VALUES
  ('N.N.[Cl][Pt][Cl] [cisplatin]', 'HaCat', 4.58);

====

# Tested on: A549
# assay explanation: MTT cytotoxicity assay (IC50)
# Format: cell-based, human
# measurement context: Homo sapiens; A549, after 72 h incubation, MTT, vs untreated control cells; read-out: IC50
Where a name gives a salt, the structure may show the parent alone.
attribute measured: IC50 (µM)

INSERT INTO measurements (compound, attribute_measured, observed_measurement) VALUES
  ('O=C(O)Cc1ccccc1Nc1c(Cl)cccc1Cl [NaDf, diclofenac sodium salt]', 'IC50', 699);

====

# Test system: PANC-1
# assay explanation: MTT cytotoxicity assay (IC50)
# Type: cell-based, human
# measurement context: Homo sapiens, PANC-1, 72 h
attribute measured: IC50 (µM)

INSERT INTO results (structure_notation, measurement_target, attribute_measured, observed_measurement) VALUES
  ('C1N2CN3CN1CP(C2)C3', 'PANC-1', 'IC50', 1290);
